src = ChEMBL document CHEMBL2331531

Test: Half life in human liver microsomes
Assay type: ADME, Microsome
readout kind: half-life (min)
Numbers only, in min.

Worked examples, 5 compounds total:
# compound, unit, half-life
records = [
    ("COc1cccc(CN(CCO)C(=O)Nc2ccc(-c3cn[nH]c3)cc2)c1", "min", 24),
    ("COc1cccc(CN(CCN2CCCCC2)C(=O)Nc2ccc(-c3cn[nH]c3)cc2)c1", "min", 11),
    ("COCCN(Cc1cccc(OC)c1)C(=O)Nc1ccc(-c2cn[nH]c2)cc1", "min", 21),
    ("COc1cccc(C(CCO)NC(=O)Nc2ccc(-c3cn[nH]c3)cc2)c1 (configuration not stated)", "min", 112),
    ("COc1cccc(CN(CCCN2CCCC2)C(=O)Nc2ccc(-c3cn[nH]c3)cc2)c1", "min", 59),
]

Give half-life for each of the items listed below.
1. COc1cccc(CN(CCN2CCCC2)C(=O)Nc2ccc(-c3cn[nH]c3)cc2)c1
2. COc1cccc(CN(CCN(C)C)C(=O)Nc2ccc(-c3cn[nH]c3)cc2)c1
3. COc1cccc(CN(CCCN2CCOCC2)C(=O)Nc2ccc(-c3cn[nH]c3)cc2)c1
4. COc1cccc(CN(C(=O)Nc2ccc(-c3cn[nH]c3)cc2)C(C)C)c1
5. COc1cccc(CN(C)C(=O)Nc2ccc(-c3cn[nH]c3)cc2)c1
6. COc1cccc(CN(CCN(C)C)C(=O)Nc2ccc(-c3cn[nH]c3)cn2)c1
7. CCN(Cc1cccc(OC)c1)C(=O)Nc1ccc(-c2cn[nH]c2)cc1

1. 25
2. 34
3. 4
4. 11
5. 23
6. 17
7. 25

Hi team, please reply with half-life for each item in this list.
1. COc1cccc(CN(CCN2CCOCC2)C(=O)Nc2ccc(-c3cn[nH]c3)cc2)c1
2. COc1cccc(CN(C(=O)Nc2ccc(-c3cn[nH]c3)cc2)C2CC2)c1
3. COc1cccc(CN(CCCN2CCCCC2)C(=O)Nc2ccc(-c3cn[nH]c3)cc2)c1

1. 3
2. 25
3. 14
